Study System: interaction between PD-1 and PD-L1 (Homo sapiens (Human))
Assay Details: PD1-PDL1 HTRF binding activity test (Cisbio PD-1/PD-L1 binding assay kit)
Stated Conditions: read-out: PD1-PDL1 HTRF Binding Activity IC50
Readout Kind: IC50 (nM)

Molecule	Scale Unit	IC50
COCCNCc1cnc(C(=O)Nc2cccc(-c3cccc(NC(=O)c4cc(C)c(CNCCOC)cn4)c3C)c2C)cc1C [Example 7]	nM	0.096

[A] Cc1cc(C(=O)Nc2cccc(-c3ccccc3)c2C)ncc1CNCCO [Positive compound, reference compound]
[B] COc1cc(C(=O)Nc2cccc(-c3cccc(NC(=O)c4cc(OC)c(CNCCOC(C)=O)cn4)c3C)c2C)ncc1CNCCOC(C)=O [Example 38]
Please indicate which has the smaller reported IC50: A , or B . State your choice using its label. B

[1] Cc1c(NC(=O)c2cc(C3CC3)c(CN[C@H](CO)C(=O)O)cn2)cccc1-c1cccc(NC(=O)c2cc(C3CC3)c(CN[C@H](CO)C(=O)O)cn2)c1C [Example 105]
[2] Cc1c(NC(=O)c2cc(C3CC3)c(CNCC(F)(F)F)cn2)cccc1-c1cccc(NC(=O)c2cc(C3CC3)c(CNCC(F)(F)F)cn2)c1C [Example 140]
[3] COC(=O)C1CCN(Cc2cnc(C(=O)Nc3cccc(-c4cccc(NC(=O)c5cc(OC)c(CN6CCC(C(=O)OC)CC6)cn5)c4C)c3C)cc2OC)CC1 [Example 84]
[4] COc1cc(C(=O)Nc2cccc(-c3cccc(NC(=O)c4cc(OC)c(CNCC5(O)CC5)cn4)c3C)c2C)ncc1CNCC1(O)CC1 [Example 41]
[5] COC(=O)[C@@H]1CCCCN1Cc1cnc(C(=O)Nc2cccc(-c3cccc(NC(=O)c4cc(C5CC5)c(CN5CCCC[C@H]5C(=O)OC)cn4)c3C)c2C)cc1C1CC1 [Example 109]
// smallest IC50 at index 0, largest at the end Put the labels in the requested order and list them out. 4, 1, 3, 2, 5
(4: 0.032 nM, 1: 0.27 nM, 3: 1.36 nM, 2: 15.1 nM, 5: 375 nM)

====

The following molecules are listed with their measured pEC50 values.
Study System: interaction between PD-1 and PD-L1 expressed on cell surfaces (Homo sapiens (Human), UniProt Q9NZQ7)
Sequence (Q9NZQ7 19-290): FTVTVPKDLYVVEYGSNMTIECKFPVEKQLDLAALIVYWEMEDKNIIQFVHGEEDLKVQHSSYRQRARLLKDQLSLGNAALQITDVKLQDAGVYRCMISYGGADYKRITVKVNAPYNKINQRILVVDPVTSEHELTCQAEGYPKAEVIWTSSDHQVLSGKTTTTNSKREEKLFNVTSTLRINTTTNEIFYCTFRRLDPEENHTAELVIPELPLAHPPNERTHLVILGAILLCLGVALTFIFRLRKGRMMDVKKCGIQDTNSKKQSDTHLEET
Assay Details: Jurkat reporter gene cellular assay (Jurkat/NF-κB-luc/PD1 cells cocultured with Raji-PD-L1 cells, OKT-3 stimulation)
Type: cell-based
Stated Conditions: NF-κB-luc reporter activation fold, 6 hrs; read-out: Cell Activity EC50
pEC50: −log10 of the molar value.

COC(=O)[C@@H]1CCCCN1Cc1cnc(C(=O)Nc2cccc(-c3cccc(NC(=O)c4cc(C5CC5)c(CN5CCCC[C@H]5C(=O)OC)cn4)c3C)c2C)cc1C1CC1 < 5.00
Cc1cc(C(=O)Nc2cccc(-c3cccc(NC(=O)c4cc(C)c(CN5CCNC(=O)C5)cn4)c3C)c2C)ncc1CN1CCNC(=O)C1 < 5.00

Indicate its recorded pEC50; the molecule in question is CCOC(=O)C(NCc1cnc(C(=O)Nc2cccc(-c3cccc(NC(=O)c4cc(C5CC5)c(CNC(C(=O)OCC)C(=O)OCC)cn4)c3C)c2C)cc1C1CC1)C(=O)OCC < 5.00

====

Study System: interaction between PD-1 and PD-L1 (Homo sapiens (Human), UniProt Q9NZQ7)
Sequence (Q9NZQ7 19-238): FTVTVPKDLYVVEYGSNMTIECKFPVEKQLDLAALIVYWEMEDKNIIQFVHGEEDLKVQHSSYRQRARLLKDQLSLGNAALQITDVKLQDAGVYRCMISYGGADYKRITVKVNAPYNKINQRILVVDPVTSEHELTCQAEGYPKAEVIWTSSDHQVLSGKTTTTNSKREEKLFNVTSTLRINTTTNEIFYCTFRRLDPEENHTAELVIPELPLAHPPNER
Assay Details: PD1-PDL1 HTRF binding activity test (Cisbio PD-1/PD-L1 binding assay kit)
Stated Conditions: read-out: PD1-PDL1 HTRF Binding Activity IC50
pIC50: −log10 of the molar value.
Readout Kind: pIC50

Below are worked cases with known answers.
Compound	Result Value
Cc1cc(C(=O)Nc2cccc(-c3cccc(NC(=O)c4cc(C)c(CN[C@H](CCO)C(=O)O)cn4)c3C)c2C)ncc1CN[C@H](CCO)C(=O)O [Example 30]	8.91
COc1cc(C(=O)Nc2cccc(-c3cccc(NC(=O)c4cc(OC)c(CN[C@H]5CCC[C@@H]5O)cn4)c3C)c2C)ncc1CN[C@H]1CCC[C@@H]1O [Example 44]	9.62
Cc1c(NC(=O)c2cc(C3CC3)c(CN3CC(O)C3)cn2)cccc1-c1cccc(NC(=O)c2cc(C3CC3)c(CN3CC(O)C3)cn2)c1C [Example 98]	8.42

[P] COc1cc(C(=O)Nc2cccc(-c3cccc(NC(=O)c4cc(OC)c(CN5CCOCC5)cn4)c3C)c2C)ncc1CN1CCOCC1 [Example 31]
[Q] COc1cc(C(=O)Nc2cccc(-c3cccc(NC(=O)c4cc(OC)c(CN5CC(OC)C5)cn4)c3C)c2C)ncc1CN1CC(OC)C1 [Example 51]
Which shows the larger pIC50 value: P or Q ? State your choice using its label. Q
(Q: 9.66, P: 9.00)
